# Measurement protocol: amyloid nucleation score (Sup35N fusion, yeast selection) (log enrichment); library NNK3; higher = more nucleation; inactive = no reads after selection;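 further: zero at mode of non-aggregating sequences after 7 days selection at 30°C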
Measurement type: amyloid nucleation score

CFLGVSNMHIGWFGVR; 0.838
TNMVMA; inactive
YSCFVRHCVDRFVRNDSDQT; inactive
MSVACFSLASVFQWGFFASC; inactive
YIRATCDSLCVISVWVLRFL; inactive

Entry KMSNGDTNDANVFIVRDSWL : reported amyloid nucleation score = ? inactive

Requested field: amyloid nucleation score. Item: ESIVVRF inactive

Returns the measured amyloid nucleation score for the input substance. Input: INFCIINNTMV 1.75

// query amyloid nucleation score value for entry SLIVQAL inactive

----------
# Measurement protocol: amyloid nucleation score (Sup35N fusion, yeast selection) (log enrichment); library NNK3; higher = more nucleation; inactive = no reads after selection
Measurement type: amyloid nucleation score

Reference set (10 entries):
PGCAAWRRSYVS; inactive
FLCMLVYI; 1.23
GISCNLYVINGICSWYFLVT; 1.56
SAYYYGKY; inactive
IVADAAWNAIGVSGMDSTGT; inactive
CVGVCKNLNRWFH; inactive
FLCIVSAYF; inactive
CLSLYL; inactive
MFVSDKEYRCVTSSVTRVCT; inactive
CYIVGVVGLSTDWFMSGHSD; 0.035

Which value of amyloid nucleation score has been reported for RYPGVFTTQSA in the records? inactive

Which measured amyloid nucleation score value corresponds to TLTGVPAGSTT ? inactive

Name the recorded amyloid nucleation score for IVSALQFAEAKL . inactive

Given the substance LACSSSCILSPVVGIGFSWN , what is its reported amyloid nucleation score? 1.89

----------
# Measurement protocol: amyloid nucleation score (Sup35N fusion, yeast selection) (log enrichment); library NNK2; higher = more nucleation; inactive = no reads after selection
Field: class. Source value: amyloid nucleation score. Ranges: low: < -0.1; middle: ≥ -0.1 and < 0.8; high: ≥ 0.8

SVRLNFEFRDYDCRQVLSIF; low
TSNSTQLEDLV; middle
WWETSIFFWEGIYT; low
YLLRNWLPGKVGCHQFLILW; middle
MTSLGVPNAYCEGNGAWYHR; middle

Please report the category associated with NSMNVGSFRSSEWLVLFENV , nothing else. low

Class label required: DSWFEQCVVFWLKTNCPQQE middle

Could you place YSWVEPRSRRAVEHDS in its proper category? Many thanks. middle

Please classify: HIWRHDRVLLGSSNTKYMCG middle

Just checking, what class would you give FLPYFNPEVSGIFCVNRMST here? low

Class? Entry: HYLAIVTWLPYRCRF high

Assign a category based on measured amyloid nucleation score for LRRVSGRLDSIWSWCVRCNE and give only the class name. low

Which amyloid nucleation score category applies to SLYFGIRYENRERCLFDLHV here? high

----------
# Measurement protocol: amyloid nucleation score (Sup35N fusion, yeast selection) (log enrichment); library NNK1; higher = more nucleation; inactive = no reads after selection
Form field: amyloid nucleation score (one value per entry).
// return just the number, without any unit appended

Below: 5 substances and their reported amyloid nucleation score.
LLLYPRMGDRGTYYGMSGIR; -1.01
FNDGYSVAEA; 0.998
TCYLSDSLASY; -0.328
FIQNGV; 0.659
DNQVLCYECRGYWMQTVHVL; 0.069

So what's the measured amyloid nucleation score for this one? YNMNFVSLVLGARRVYALSM 3.62

I am curious: what amyloid nucleation score value has been reported for RLPWLRAQNANLVLLLVNRR ? 4.9

Give the measured amyloid nucleation score of LCAMIPAVGRYWSCVVGHSV . -0.013

// amyloid nucleation score lookup, key: LDGVFNTTIATVNSFREYLM 0.132

Query: amyloid nucleation score; subject: YFGYRCDYRCNPPLAPLCAN 0.515

# query: amyloid nucleation score of entry ENVYGWVG 1.09

Could you share which amyloid nucleation score value was measured for TYCKASGVR ? 0.371

I have this substance here, VGLIDANTSSTSWCEGMRNS , and I need its recorded amyloid nucleation score. -0.321

Looking for the measured amyloid nucleation score of GYIYLFGARFVVEEFGIVFW , can you help? 0.678

I am curious: what amyloid nucleation score value has been reported for SKTEMSTTMFY ? -0.037

Values from the supplement of paper PMC12042874
